B1: TPR 5TU (parent)
chain: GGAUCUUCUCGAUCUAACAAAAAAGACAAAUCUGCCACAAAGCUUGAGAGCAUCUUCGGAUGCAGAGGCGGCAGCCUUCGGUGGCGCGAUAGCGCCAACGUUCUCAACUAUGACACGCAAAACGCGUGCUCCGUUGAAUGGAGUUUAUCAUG

variants of: B1; experiment: polymerase ribozyme fitness, log enrichment relative to wild type (log ratio); higher = more active; in vitro selection for triplet polymerase activity
Fewer inactive variants are shown than the library holds.
# polymerase ribozyme fitness (log ratio) values compiled below
measurement_name: polymerase ribozyme fitness (log ratio)

1. C72G A91C
≤ -4.2
2. A30U G94U
≤ -4.2
3. G25U A49C G68U G84A C87G A89U G94C C114A U148G
≤ -4.2
4. C5G C57U
-0.358
